- Test system: CAKI-1
- test_description: NCI tumour cell line growth inhibition, 48 h
The source made the active and inactive calls. Rule as the data show it: active = GI50 up to about 1.1 µM and inactive = higher.
property_measured: GI50

Observe how each entry below is paired with its result.
INSERT INTO assay_data (compound, result) VALUES
  ('CCCCSC1=N/C(=C\c2ccccc2O)C(Cl)=N1', '> 100 µM (inactive)'),
  ('CC[P+](C#Cc1ccccc1)(c1ccccc1)c1ccccc1', '9.66 µM (inactive)'),
  ('CCOC1NC(=O)Oc2ccccc21 (stereo unspecified)', '> 100 µM (inactive)'),
  ('O=c1[nH]c(=O)n(C2CC(O)C(CO)O2)cc1OCCCc1ccccc1 (stereo unspecified)', '> 100 µM (inactive)'),
  ('N#[N+]c1cc2c(cc1Br)-c1ccccc1C2', '97.5 µM (inactive)');

Returns the measured GI50 for the input compound. Input: CC(=O)NC1C(OCc2ccccc2)OC(CO)C(O)C1OCC(=O)N1CCCC1C(=O)N[C@@H](CCC(=O)NCCNCCNc1c2ccccc2nc2cccc([N+](=O)[O-])c12)C(N)=O (stereo partly specified)
1.94 µM (inactive)

Returns the measured GI50 for the input compound. Input: CCOC(=O)CCc1cn2cc(Br)nc(OC)c2n1
> 100 µM (inactive)

Returns the measured GI50 for the input compound. Input: Nc1ccc(-c2nc3cc(F)ccc3s2)cc1CO
> 56.5 µM (inactive)

Returns the measured GI50 for the input compound. Input: COC(=O)C1=C(C)NC(=O)N2[C@@H](CCOCc3ccccc3)CC[C@@H]12
> 50 µM (inactive)

Returns the measured GI50 for the input compound. Input: O=C(Cn1ccnc1[N+](=O)[O-])NCc1ccc(F)cc1
> 100 µM (inactive)

Returns the measured GI50 for the input compound. Input: CC1=C(Oc2ccccc2)C(CCC(=O)O)c2c(O)cc(Cl)c(O)c21 (stereo unspecified)
> 100 µM (inactive)

----------
Listed next: entries and their corresponding GI50.
- Test system: RXF 393
- test_description: NCI tumour cell line growth inhibition, 48 h
Calls of active or inactive are those of the source. No stated cut-off is given here; in the data, active = GI50 up to about 1.1 µM and inactive = higher.

Observe how each entry below is paired with its result.
INSERT INTO assay_data (molecule, tgt, result) VALUES
  ('CC(=O)O[C@H]1C(=O)[C@@]2(C)[C@H]([C@H](OC(=O)c3ccc([N+](=O)[O-])cc3)[C@]3(O)C[C@H](OC(=O)[C@H](O)[C@@H](NC(=O)c4ccccc4)c4ccccc4)C(C)=C1C3(C)C)[C@]1(OC(C)=O)CO[C@@H]1C[C@@H]2O', 'RXF 393', '> 25 µM (inactive)'),
  ('O=C1NC(N2CCCCC2)=N/C1=C\c1ccc(Cl)cc1', 'RXF 393', '> 100 µM (inactive)'),
  ('O=C(Cn1ccnc1[N+](=O)[O-])NCc1ccc(F)cc1', 'RXF 393', '> 100 µM (inactive)'),
  ('N#CC(/C(=N/NC(=N)N)C(=O)Nc1ccccc1[N+](=O)[O-])c1nc(-c2ccc([N+](=O)[O-])cc2)cs1 (stereo not drawn)', 'RXF 393', '> 100 µM (inactive)'),
  ('CCN(CC)C1CCC(C2c3cc4c(cc3OC(N3CCOCC3)C2C)OCO4)CC1 (stereo not drawn)', 'RXF 393', '10.7 µM (inactive)'),
  ('O=c1[nH]c(=O)n(C2OC(CO)C(O)C2O)cc1OCc1ccccc1 (stereo not drawn)', 'RXF 393', '> 57.4 µM (inactive)'),
  ('CC1=NN(c2cccc(Cl)c2)C(=N/c2nc3ccccc3s2)/C1=C\c1ccc(Cl)cc1', 'RXF 393', '20.3 µM (inactive)');

Turning now to a further molecule:
Returns the measured GI50 for the input molecule. Input: COc1cc(-c2oc3c(OC)c(O)cc(O)c3c(=O)c2OC)ccc1O
3.73 µM (inactive)

The measured values listed here are drawn from ChEMBL document CHEMBL1201862.
